System: Mtb H37Ra ITM-M006710 (ATCC 9431)
Test name: Microplate Alamar Blue Assay (MABA) microdilution, Mtb H37Ra
Type: cell-based, Mycobacterium tuberculosis
Applied conditions: Mycobacterium tuberculosis, pH 6; read-out: MIC Mtb H37Ra
Result type: MIC (µg/mL)
Use µg/mL as the unit, but write only the number.

[Q] Entry `COC(=O)[C@@H](Cc1ccc(O)cc1)NC(=O)c1cnccn1` has what MIC?
[A] 125

[Q] What does the data say about its MIC? Entry: COC(=O)[C@@H](CO)NC(=O)c1cnccn1 [PC-D-Ser-Me, methyl (pyrazine-2-carbonyl)-D-serinate]
[A] 250

[Q] Tell me the measured MIC of `COC(=O)[C@H](NC(=O)c1cnccn1)[C@H](C)OC(C)(C)C` , please.
[A] 62.5

[Q] Any idea what its MIC is? The compound is O=C(O)c1cn(C2CC2)c2cc(N3CCNCC3)c(F)cc2c1=O [CPX, ciprofloxacin, reference compound]
[A] 0.25

[Q] Dear colleague, I am looking for the recorded MIC of the following compound: `O=C(N[C@@H](CSCc1ccccc1)C(=O)O)c1cnccn1`
[A] 62.5

[Q] Look up MIC for this compound: `C=C(NC(=O)c1cnccn1)C(=O)OC`
[A] 62.5

[Q] Which MIC reading was recorded for the compound `CCOC(=O)CC[C@H](NC(=O)c1cnccn1)C(=O)OCC` ?
[A] 31.2

[Q] What value of measured MIC is listed for `CC[C@H](C)[C@H](NC(=O)c1cnccn1)C(=O)OC` ?
[A] 250

[Q] Item under review: CCOC(=O)[C@H](C)NC(=O)c1cnccn1 [PC-L-Ala-Et, ethyl (pyrazine-2-carbonyl)-L-alaninate] . Reported MIC?
[A] 3.91
